- System: Acinetobacter baumannii
- assay remarks: Activity of Acinetobacter baumannii phenotype 1 beta-lactamase assessed per mg of protein at 100 uM
measurement type: Activity (mU/mg)
Numbers only, in mU/mg.

// solved cases for Activity follow
molecule: C[C@@H](O)[C@H]1C(=O)N2C(C(=O)O)=C(S[C@@H]3CN[C@H](C(=O)N(C)C)C3)[C@H](C)[C@H]12
tested on: Acinetobacter baumannii
reported: 1.7

molecule: Cc1onc(-c2ccccc2)c1C(=O)N[C@@H]1C(=O)N2[C@@H]1SC(C)(C)[C@@H]2C(=O)O
tested on: Acinetobacter baumannii
reported: 230

molecule: CC(C)(O/N=C(\C(=O)N[C@@H]1C(=O)N2C(C(=O)[O-])=C(C[n+]3ccccc3)CS[C@H]12)c1csc(N)n1)C(=O)O
tested on: Acinetobacter baumannii
reported: 1

molecule: CC1(C)S[C@@H]2[C@H](NC(=O)Cc3ccccc3)C(=O)N2[C@H]1C(=O)O
tested on: Acinetobacter baumannii
reported: 220

molecule: CC(=O)OCC1=C(C(=O)O)N2C(=O)[C@@H](NC(=O)Cc3cccs3)[C@H]2SC1
tested on: Acinetobacter baumannii
reported: 20

// next entry
[in] Look up and report measured Activity for this entry: C[C@@H](O)[C@H]1C(=O)N2C(C(=O)O)=C(SCCNC=N)C[C@H]12 [IMIPENEM ANHYDROUS]
[out] 5.2
